experiment: yeast display, Sf9 membrane polyspecificity reagent, FACS + sequencing; frameworks hold sequencing errors
endpoint: polyreactivity (PSR sort gate)

* QVQLVESAGGLVQAGGSLRLSCDASGYTFNYNTMGCYRQARGKERELVSAINTSGSTDYADSVKGRFTISRDNAKNTDYLLMNRLKPEDTAVYYCAVRVAYKYNYWGQGTQETVSS | high polyreactivity
* QVQLVESGGGLVQAGGSLRLSCAASGYIFCGYAMGWYRQAPGKERELVAAINRGGSTYYADSVKGRFTISRDNAKNTVYLQMNSLKPEDTAVYYCAARLLYYNSIKRYYWGQGTQVTVSS | high polyreactivity
* QVQLVESGGGLVQAGGSLRLSCGASGRIISKYAMGWYRQAPGKERELVAAITSRGGNTYYAVSVKGRFTISRDNAKNTVYFQMYSLNPEDTAVYSCNTSPQSRYVFGRVDSWGQGTQVTVSS | high polyreactivity
* QVQLVESGGGLVQAGGSLRLSCAASGFIFAGYAMGWYRQAPGKERELVAAISWDGGSTYYADSVKGRFTISRDNAKNTVYLQMNSLKPEDTAVYYCARARYGKYGYWGQATQVTVSS | low polyreactivity
* QVQLVESGGGLVQAGGSLRLSCAASGRIFFYNGMGWYRQAPGKERELVAAINRSGGSTYYADSVKGRFTISRDNAKNTVYLQMNSLKPVDTAVYYCNAASFTVPMDFWGQGTQVTVSS | low polyreactivity
